Tested on: S. aureus 29213
Test: Antibacterial susceptibility test (MIC, microbroth dilution)
Type: cell-based
Details: 18 hours at 37° C., >90% inhibition of bacterial growth
Listed compounds paired with reported MIC
reported-metric: MIC

compound=NC(=O)c1c(F)ccc(NCc2cccc(OCc3ccc(C(F)(F)F)cc3)c2)c1F result=">100 µM"
compound=NC(=O)c1c(F)ccc(NCc2ccc(F)cc2F)c1F result=">100 µM"
compound=NC(=O)c1c(F)ccc(NCc2ccc(F)c(F)c2)c1F result=">100 µM"
compound=CCCCOc1cccc(CNc2ccc(F)c(C(N)=O)c2F)c1 result="50 µM"
compound=CCCCCOc1cccc(CNc2ccc(F)c(C(N)=O)c2F)c1 result="50 µM"
compound=NC(=O)c1c(F)ccc(N(Cc2c(F)cccc2F)Cc2c(F)cccc2F)c1F result=">100 µM"
compound="NC(=O)c1c(F)ccc(OCc2nc3cc(Cl)cnc3s2)c1F [PC190723, reference compound]" result="0.5 µM"
compound=NC(=O)c1c(F)ccc(N(Cc2ccc(F)c(F)c2)Cc2ccc(F)c(F)c2)c1F result="50 µM"
compound=NC(=O)c1c(F)ccc(N(Cc2ccc(F)cc2F)Cc2ccc(F)cc2F)c1F result=">100 µM"
compound="CCC(C)Oc1cccc(CNc2ccc(F)c(C(N)=O)c2F)c1 (centres unmarked)" result=">100 µM"
compound=NC(=O)c1c(F)ccc(NCc2c(F)cccc2F)c1F result=">100 µM"

This collection of values is drawn from patent US20170348258A1.
